- Experimental target: CXCL8 monomer (residues 1–66) (disulfides Cys9-Cys50 (printed) and Cys7-Cys34 (by convention), mature numbering; mature residue 1 = precursor 28 (offset +27), matching PDB 5WDZ entity 1 (66 aa); 15N-labelled for NMR)
- Sequence (chain, as listed by the source): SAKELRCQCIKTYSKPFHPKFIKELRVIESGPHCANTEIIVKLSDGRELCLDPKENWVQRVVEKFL
- Assay text: NMR titration; 200 μM 15N-CXCL8 titrated with unlabeled CXCR1 peptide (2.5 mM stock, molar ratios 0 to 8.4); 2D 1H-15N HSQC; shift changes fit to a 1:1 model for KD; line shape analysis (Bloch–McConnell, two-site exchange) for koff, kon = koff/KD; 50 mM sodium phosphate pH 6.0, 30 °C
- Assay setup: both partners purified
pKd: −log10 of the molar value.
Recorded endpoint: pKd

[
  {
    "Binder": "MSNITDPQMWDFDDLNFTGMPPADEDYSP (peptide, UniProt P25024 1-29, looked up, CXCR1 receptor, N-terminal domain, first 29 amino acids (M1, S2 ... S28 named in the text); human by the discussion's contrast with the rabbit peptide; Recombinant peptide; 15N-labelled where it was the observed species in NMR, unlabelled otherwise; also called CXCR1 N-domain 29mer; CXCR1 N-terminal domain; source: E. coli BL21(DE3), purified) [CXCR1 N-domain peptide corresponding to the first 29 amino acids (29mer)]",
    "Recorded endpoint": "pKd",
    "Value observed": "~5.30"
  }
]

Entry source: paper PMC6278376
